tested on: SW-620 colon; experiment: NCI tumour cell line growth inhibition, 48 h
observable: TGI

>>> print(df.to_string())
                                   compound  observable  result_value
0  Cc1cc(S(=O)(=O)Nc2nc(N)n(-c3cnc4ccccc4n3)n2)c(S)cc1Cl         TGI      > 100 µM
1   COC(=O)c1cc(Br)c(C(=O)C(Cl)(Cl)Cl)[nH]1         TGI      > 100 µM
2  C1COC2SC3=C(SC(=C4SC5=C(SCCS5)S4)S3)SC2O1 (configuration not stated)         TGI      > 100 µM
3  Cc1ccc(S(=O)(=O)Nn2c(-c3ccccc3)c(C#N)c(-c3ccc(Cl)cc3)c(C#N)c2=O)cc1         TGI      > 100 µM
4  COc1cc2c(c(OC)c1OC)-c1ccc(OC)c(=O)cc1[C@@H](NC(=O)CCl)CC2         TGI         12 µM
5  O=C1CN(c2cccc(C(F)(F)F)c2)C(=O)CN1NCNN1CC(=O)N(c2cccc(C(F)(F)F)c2)CC1=O         TGI      > 100 µM
6          CC1=CC2=C(OCO1)C(=O)c1ccccc1C2=O         TGI       21.6 µM

----------
system: HCT-15 colon; assay: NCI tumour cell line growth inhibition, 48 h

compound	TGI
O=S(=O)(O)c1cc(S(=O)(=O)O)c2c(N=Nc3cccc4ccccc34)c(O)ccc2c1	> 100 µM
CCN1C(=O)N(CC)C2C1NN=c1s/c(=C3\C(=O)N(CCC(C)C)c4ccccc43)c(=O)n12 (stereo not given)	3.75 µM
CN(CCc1ccc(Br)cc1)CCN1CCCCC1	> 100 µM
CS(=O)(=O)CCNCc1ccc(-c2ccc3ncnc(Nc4ccc(OCc5ccccc5)c(C(F)(F)F)c4)c3c2)o1	10.2 µM
O=C(O)c1ccc(Nc2ccnc3cc(Cl)ccc23)cc1O	> 100 µM
N=c1ccn2c(n1)OC1C(OP(=O)(O)O)C(CO)OC12 (stereo not given)	> 100 µM
C=C1C(=O)O[C@@H]2[C@H]1CC[C@H](C)[C@]1(O)CCC(=O)[C@@]21C	> 10 µM
CC1(C)S[C@@H]2[C@H](NC(=O)CCC[C@@H](N)C(=O)O)C(=O)N2[C@H]1C(=O)O	> 50 µM
CCCCCCCC1c2cc3[nH]c(cc4nc(cc5[nH]c(cc(n2)[C@@]1(C)CC(=O)N(C)C)c(C)c5CCC(=O)O)C(CCC(=O)O)=C4C)cc3C (stereo not given in full)	39.5 µM
COc1ccc(C2Oc3c(cccc3OC)C=C2[N+](=O)[O-])cc1OC (stereo not given)	24 µM
CSc1ccc(-c2cn3ccsc3n2)c(O)c1	> 55.8 µM
O=C(O)/C(Cl)=C(\Cl)Nc1cccc(C(F)(F)F)c1	> 100 µM
CCOC(=O)C(NNS(=O)(=O)c1ccc(C)cc1)S(=O)(=O)C(F)(F)C(F)(F)C(F)(F)C(F)(F)F (stereo not given)	> 100 µM
COC(=O)/C=C\c1ccc2c(c1)CC1(C2)Cc2ccc(/C=C/C(=O)OC)cc2C1 (stereo not given)	> 31.6 µM
O=C1c2ccccc2C(=O)N1/N=C\c1ccc(Br)cc1	> 100 µM
Cc1cc(NC(=O)c2ccc(NS(=O)(=O)CCO)cc2N2CCC3(CC2)CC3)nc(N2CCC(F)(F)CC2)n1	20.5 µM
Nc1ncc(-c2cnn(C3CCNCC3)c2)cc1-c1nc2ccccc2o1	2.5 µM
COc1cc2[nH]c(C(=O)c3cc(OC)c(OC)c(OC)c3)c(N)c2cc1C#CCO	> 100 µM
N=c1c2c(ncn1N)Oc1c(c(-c3ccccc3)nn1-c1ccccc1)C2c1ccc(Cl)cc1 (stereo not given)	3.65 µM
COc1ccc(C)c2c1N[C@](C)([C@]1(C)Nc3c(OC)ccc(C)c3C1=O)C2=O	> 100 µM

----------
test system: SNB-19 CNS; assay: NCI tumour cell line growth inhibition, 48 h
Recorded TGI values for a group of compounds are listed next.
observable: TGI

In [3]: df
Out[3]:
                                    compound  result_value
 0  CN1C(=O)n2c(nc3ccccc32)C(N=[N+]=[N-])(N=[N+]=[N-])C1=O (stereo not given)      > 100 µM
 1  Cc1ccc(S(=O)(=O)Nn2c(-c3ccccc3)c(C#N)c(-c3ccc(Cl)cc3)c(C#N)c2=O)cc1      > 100 µM
 2             CNC(=O)Nc1cc2c3c(c1)CCCN3CCC2       > 10 µM
 3  Nc1nc(N)c2nc(CNc3ccc(C(=O)CC(CCC(=O)O)C(=O)O)cc3)cnc2n1 (stereo not given)      > 100 µM
 4  C[C@H]1CCC/C=C/[C@@H]2C[C@H](O)C[C@H]2[C@H](O)[C@H](S(=O)c2ccc(O)cc2)CC(=O)O1 (stereo not given in full)      > 100 µM
 5  C1COC2SC3=C(SC(=C4SC5=C(SCCS5)S4)S3)SC2O1 (stereo not given)      > 100 µM
 6      O=C(O)c1ccc(Nc2ccnc3cc(Cl)ccc23)cc1O      > 100 µM
 7  c1ccc(COCC23CCN(Cc4ccccc4)C(CC(OCc4ccccc4)C2)S3)cc1 (stereo not given)      > 100 µM
 8  COc1ccc(C2Oc3c(cccc3OC)C=C2[N+](=O)[O-])cc1OC (stereo not given)      > 100 µM
 9  C=C(C)C1CC=C(C(=O)O)CC1 (stereo not given)       4330 µM
10  Cc1cc(S(=O)(=O)Nc2nc(N)n(-c3cnc4ccccc4n3)n2)c(S)cc1Cl      > 100 µM
11               O=C(O)C(=O)Cc1ccc2c(c1)OCO2      > 100 µM
12  COC(=O)c1cc(NC2OCC(OC(C)=O)C(OC(C)=O)C2OC(C)=O)nc(SC)c1C(=O)OC (stereo not given)      > 100 µM
13  COc1cc(-c2c[nH]c3ccccc23)nc(-c2c[nH]c3ccccc23)n1         21 µM
14   O=c1c(O)c(-c2ccc(O)c(O)c2)oc2cc(O)ccc12      > 100 µM
15  CCOC(=O)c1ccc2c(c1)nc1n2C(c2c(F)cccc2F)SC1 (stereo not given)       83.5 µM
16  COc1ccccc1C1C2=C(COC2=O)OC(C)(C)Oc2cc3c(cc21)OCO3 (stereo not given)       58.2 µM
17  CS(=O)(=O)CCNCc1ccc(-c2ccc3ncnc(Nc4ccc(OCc5ccccc5)c(C(F)(F)F)c4)c3c2)o1       9.37 µM
18  CCc1ccccc1NC(=O)/C(CC(=O)c1c(C)n([O-])c2ccccc2[n+]1=O)=N\NS(=O)(=O)c1ccc(C)cc1      > 100 µM
19  Cc1cc(NC(=O)c2ccc(NS(=O)(=O)CCO)cc2N2CCC3(CC2)CC3)nc(N2CCC(F)(F)CC2)n1       21.6 µM

----------
test system: OVCAR-8 ovarian; test: NCI tumour cell line growth inhibition, 48 h
observable: TGI

compound	target_desc	result_value
O=c1[nH]cnc2c(C3OC(CO)C(O)C3O)[nH]nc12 (centres undefined)	OVCAR-8 ovarian	70.3 µM
O=c1ncc(-c2ccc(C(F)(F)F)cc2)c(NC2CCCCCC2)[nH]1	OVCAR-8 ovarian	40.4 µM
CCCCCCCCCCCCCCCCC1=CC(=O)C=C(OC)C1=O	OVCAR-8 ovarian	> 100 µM
COC(=O)c1cc(NC2OCC(OC(C)=O)C(OC(C)=O)C2OC(C)=O)nc(SC)c1C(=O)OC (centres undefined)	OVCAR-8 ovarian	> 100 µM
CCCCOC(=O)CN1C(=O)c2ccccc2C1=O	OVCAR-8 ovarian	> 100 µM
CCOC(=O)/C(C#N)=C(/NS(=O)(=O)c1cc(C)c(Cl)cc1[S-])[n+]1ccc(N(C)C)cc1	OVCAR-8 ovarian	> 100 µM
c1ccc(N/N=C2\CC(c3ccccc3)Oc3ccccc32)cc1 (centres undefined)	OVCAR-8 ovarian	> 100 µM
C/C(CC(=O)CCCC(=O)Nc1ccc(Cl)cc1Cl)=N/NC(=O)CC#N	OVCAR-8 ovarian	> 100 µM
O=C1CN(c2cccc(C(F)(F)F)c2)C(=O)CN1NCNN1CC(=O)N(c2cccc(C(F)(F)F)c2)CC1=O	OVCAR-8 ovarian	> 100 µM
CC1CC(N)=Nc2ccccc2N1Cc1ccccc1 (centres undefined)	OVCAR-8 ovarian	27.8 µM
[N-]=[N+]=NC1(N=[N+]=[N-])C(=O)NN=C(c2ccccc2)C1=O (centres undefined)	OVCAR-8 ovarian	> 100 µM
Cc1ccc(SCC(OCn2cnc3c(N)ncnc32)[C@H](C)F)cc1 (some centres undefined)	OVCAR-8 ovarian	> 100 µM
CC(=O)O[C@H](C[C@H](C(C)C)N(C)C(=O)[C@@H](NC(=O)[C@H]1CCCCN1C)C(C)C)c1nc(C(=O)N[C@@H](Cc2ccccc2)C[C@H](C)C(=O)O)c(C)s1	OVCAR-8 ovarian	> 25 µM
CC1OC(OC2C(OC(=O)[C@]34CCC(C)(C)C[C@H]3C3=CC[C@@H]5[C@@]6(C)CC[C@H](OC7OC(C(=O)O)C(O)C(O)C7O)C(C)(C)[C@@H]6CC[C@@]5(C)[C@]3(C)CC4)OCC(O)C2O)C(O)C(O)C1OC1OCC(O)C(O)C1O (some centres undefined)	OVCAR-8 ovarian	> 100 µM
CCC1CCc2nc3sc(C(=O)Nc4ccccc4F)c(N)c3cc2C1 (centres undefined)	OVCAR-8 ovarian	> 100 µM
c1ccc(COCC23CCN(Cc4ccccc4)C(CC(OCc4ccccc4)C2)S3)cc1 (centres undefined)	OVCAR-8 ovarian	> 100 µM
COc1cc2[nH]c(C(=O)c3cc(OC)c(OC)c(OC)c3)c(N)c2cc1C#CCO	OVCAR-8 ovarian	> 100 µM
O=C1c2ccccc2C(=O)N1/N=C\c1ccc(Br)cc1	OVCAR-8 ovarian	> 100 µM
N=c1ccn2c(n1)OC1C(OP(=O)(O)O)C(CO)OC12 (centres undefined)	OVCAR-8 ovarian	> 100 µM
